biological target: human OX2R (Homo sapiens); test: IPOne (IP-1) orexin receptor agonist assay in CHO cells expressing human OX2R; conditions: IPOne assay, CHO cells expressing human OX2R, 2 hours incubation; read-out: hoX2R_IP IC50
EXPERIMENTAL READOUT: IC50

COMPOUND	RESULT
CC(C)OC(=O)N1[C@H](C)C[C@H](NS(=O)(=O)N(C)C)[C@@H]1COC1CCC2(c3ncc(F)cn3)CC2C1 (stereo partly shown)	2.6 nM
COC(=O)N1[C@H](C)C[C@H](NS(=O)(=O)Cc2ccccc2)[C@@H]1CO[C@@H]1CC[C@]2(c3ncc(F)cn3)C[C@@H]2C1	173 nM
CC(C)OC(=O)N1CCC[C@H](NS(=O)(=O)C2CC2)[C@@H]1COC1CCC2(c3ncc(F)cn3)CC2C1 (stereo partly shown)	6.1 nM
COC(=O)N1[C@H](C)C[C@H](NS(C)(=O)=O)[C@@H]1COC1CCC2(c3ncc(C)cn3)CC2C1 (stereo partly shown)	79.4 nM

###

Below, each entry is listed with its recorded IC50.
target: human OX2R (Homo sapiens, UniProt O43614); experiment: IPOne (IP-1) orexin receptor agonist assay in CHO cells expressing human OX2R; details: IPOne assay, CHO cells expressing human OX2R, 2 hours incubation; read-out: hoX2R_IP IC50

COMPOUND	IC50 [nM]
COC(=O)N1[C@H](C)C[C@H](NS(=O)(=O)C(F)F)[C@@H]1CO[C@@H]1CC[C@]2(c3ncccn3)C[C@@H]2C1 (single isomer, unassigned)	20.4
C[C@@H]1C[C@H](NS(C)(=O)=O)[C@H](CO[C@H]2CC[C@@]3(c4ncc(F)cn4)C[C@H]3C2)N1C(=O)OCC1(F)CC1	2.3
C[C@@H]1C[C@H](NS(C)(=O)=O)[C@H](CO[C@H]2CC[C@@]3(c4ncc(F)cn4)C[C@H]3C2)N1C(=O)OCC1CC(F)C1 (stereo partly drawn)	1.1
COC(=O)N1[C@H](C)C[C@H](NS(C)(=O)=O)[C@@H]1COC1CCC2(c3ncc(OC(F)F)c(C)n3)CC2C1 (stereo partly drawn)	257
COC(=O)N1[C@H](C)C[C@H](NS(=O)(=O)Cc2ccccc2)[C@@H]1CO[C@H]1CC[C@@]2(c3ncc(F)cn3)C[C@H]2C1	34.4
CC(C)OC(=O)N1CCC[C@H](NS(=O)(=O)C(F)F)[C@@H]1CO[C@H]1CC[C@@]2(c3ncc(F)cn3)C[C@H]2C1	0.86

###

Target: human OX2R (Homo sapiens, UniProt O43614)
Test: IPOne (IP-1) orexin receptor agonist assay in CHO cells expressing human OX2R
Settings: IPOne assay, CHO cells expressing human OX2R, 2 hours incubation; read-out: hoX2R_IP IC50
Description: The utility of the compounds in accordance with the present invention as orexin receptor OX1R and/or OX2R agonists may be readily determined without undue experimentation by methodology well known in the art. […] The half-life of IP-3 is relatively short, being rapidly metabolized to inositol monophosphate (IP-1), which can be readily detected using a commercially available assay kit (IP-One; Cisbio; cat #621PAPEC) coupled with a cell line expressing the target receptor(s) of interest. […]
# Lookup of reported IC50 keyed by entry

MOLECULE	IC50 [nM]
COC(=O)N1[C@H](C(F)F)C[C@H](NS(=O)(=O)C2CC2)[C@@H]1COC1CCC2(c3ncc(F)cn3)CC2C1 (stereo partly shown)	2.3
C[C@@H]1C[C@H](NS(C)(=O)=O)[C@H](CO[C@H]2CC[C@@]3(c4ncc(F)cn4)C[C@H]3C2)N1C(=O)OCCC(F)F	1.4
CC(C)OC(=O)N1[C@H](C)C[C@H](NS(=O)(=O)N(C)C)[C@@H]1CO[C@H]1CC[C@@]2(c3ncccn3)C[C@H]2C1 (single isomer, unassigned)	2.3
C[C@@H]1C[C@H](NS(C)(=O)=O)[C@H](CO[C@H]2CC[C@@]3(c4ncc(F)cn4)C[C@H]3C2)N1C(=O)OCC(C)(F)F	2.1
COC(=O)N1[C@H](C)C[C@H](NS(C)(=O)=O)[C@@H]1COC1CCC2(c3nccs3)CC2C1 (stereo partly shown)	179
COC(=O)N1[C@H](C)C[C@H](NS(=O)(=O)C(F)F)[C@@H]1CO[C@H]1CC[C@@]2(c3ncc(Cl)cn3)C[C@H]2C1 (single isomer, unassigned)	1.2
COC(=O)N1CC[C@H](NS(C)(=O)=O)[C@@H]1COC1CCC2(c3ncccn3)CC2C1 (stereo partly shown) [Example 185]	1620
C[C@@H]1C[C@H](NS(C)(=O)=O)[C@H](CO[C@H]2CC[C@@]3(c4ncc(F)cn4)C[C@H]3C2)N1C(=O)OCC1CC1(F)F (stereo partly shown)	0.71
CC(C)OC(=O)N1[C@H](C(F)F)C[C@H](NS(C)(=O)=O)[C@@H]1CO[C@H]1CC[C@@]2(c3ncc(F)cn3)C[C@H]2C1	1.4
COC(=O)N1[C@H](C)C[C@H](NS(=O)(=O)C(F)F)[C@@H]1CO[C@H]1CC[C@@]2(c3ncc(F)cn3)C[C@H]2C1	1.4
CCCS(=O)(=O)N[C@H]1C[C@@H](C)N(C(=O)OC)[C@H]1CO[C@H]1CC[C@@]2(c3ncc(F)cn3)C[C@H]2C1	5.4
C[C@@H]1C[C@H](NS(C)(=O)=O)[C@H](CO[C@H]2CC[C@@]3(c4ncc(F)cn4)C[C@H]3C2)N1C(=O)OCC(F)(F)F	1.6
COC(=O)N1[C@H](C)C[C@H](NS(C)(=O)=O)[C@@H]1CO[C@H]1CC[C@@]2(c3nccs3)C[C@H]2C1 (single isomer, unassigned)	50.7
COC(=O)N1[C@@H]2CCC[C@@H]2[C@H](NS(C)(=O)=O)[C@@H]1COC1CCC2(c3ncccn3)CC2C1 (stereo partly shown)	22.6
COC(=O)N1[C@H](C)C[C@H](NS(=O)(=O)CF)[C@@H]1COC1CCC2(c3ncc(F)c(OC)n3)CC2C1 (stereo partly shown)	25.2
COC(=O)N1[C@H](C)C[C@H](NS(C)(=O)=O)[C@@H]1CO[C@H]1CC[C@@]2(c3ncc(F)cn3)C[C@H]2C1 (single isomer, unassigned)	1.4

###

Biological target: human OX2R (Homo sapiens)
Sequence (O43614 1-444): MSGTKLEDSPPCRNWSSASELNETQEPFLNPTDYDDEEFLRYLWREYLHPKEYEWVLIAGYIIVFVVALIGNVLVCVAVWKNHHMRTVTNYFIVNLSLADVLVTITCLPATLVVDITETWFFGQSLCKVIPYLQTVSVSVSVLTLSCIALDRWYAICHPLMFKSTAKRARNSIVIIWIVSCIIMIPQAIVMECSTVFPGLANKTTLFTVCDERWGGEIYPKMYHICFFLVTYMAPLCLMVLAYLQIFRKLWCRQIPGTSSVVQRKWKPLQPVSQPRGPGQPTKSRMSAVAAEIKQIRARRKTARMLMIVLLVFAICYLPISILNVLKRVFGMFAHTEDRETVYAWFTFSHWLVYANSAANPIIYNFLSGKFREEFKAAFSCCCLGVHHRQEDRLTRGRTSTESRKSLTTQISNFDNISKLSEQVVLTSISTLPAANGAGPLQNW
Experiment: IPOne (IP-1) orexin receptor agonist assay in CHO cells expressing human OX2R
Details: IPOne assay, CHO cells expressing human OX2R, 2 hours incubation; read-out: hoX2R_IP IC50
Below is a list of entries, each paired with its recorded log10 IC50 value.
EXPERIMENTAL READOUT: log10 IC50 (log10 of the value in nM)

COMPOUND	TARGET	log10 IC50
C[C@@H]1C[C@H](NS(C)(=O)=O)[C@H](CO[C@H]2CC[C@@]3(c4ncc(F)cn4)C[C@H]3C2)N1C(=O)OCC1(C)CC1(F)F (stereo partly drawn)	human OX2R (Homo sapiens)	0.15
C[C@@H]1C[C@H](NS(C)(=O)=O)[C@H](CO[C@H]2CC[C@@]3(c4ncc(F)cn4)C[C@H]3C2)N1C(=O)O[C@H]1COC[C@@H]1F	human OX2R (Homo sapiens)	0.96
COC(=O)N1[C@H](C)C[C@H](NS(=O)(=O)C2COC2)[C@@H]1CO[C@H]1CC[C@@]2(c3ncc(F)cn3)C[C@H]2C1	human OX2R (Homo sapiens)	0.64
COC(=O)N1[C@H](C)C[C@H](NS(C)(=O)=O)[C@@H]1COC1CCC2(c3nc4c(F)ccc(F)c4s3)CC2C1 (stereo partly drawn)	human OX2R (Homo sapiens)	2.92
COC(=O)N1[C@H](C)C[C@H](NS(=O)(=O)N(C)C)[C@@H]1COC1CCC2(c3cnccn3)CC2C1 (stereo partly drawn) [Example 13]	human OX2R (Homo sapiens)	2.66
COC[C@@H]1C[C@H](NS(C)(=O)=O)[C@H](CO[C@H]2CC[C@@]3(c4ncc(F)cn4)C[C@H]3C2)N1C(=O)OC	human OX2R (Homo sapiens)	0.99

Numbers sourced from patent US20230365533A1.
